These data points were gathered from patent US20130310374A1.

# Tested on: hPBMC
# assay.info: MTS toxicity assay in parallel to anti-CD3/anti-CD28 cytokine assay
# Assay type: cell-based, human
# measurement.setup: anti-CD3/anti-CD28 experiment
observed.property: % Toxicity at 0.025 μM (%)
# unit: % | format: bare number

{"smiles.structure": "COc1ccc(-n2c(=O)n(C)c3cnc4ccc(-c5cnc(N)c(C(F)(F)F)c5)cc4c32)cn1", "observed.property": "% Toxicity at 0.025 μM", "quantitative.readout": 19}
{"smiles.structure": "Cn1c(=O)n(-c2ccc(C(C)(C)C#N)nc2)c2c3cc(-c4cnc5ccccc5c4)ccc3ncc21", "observed.property": "% Toxicity at 0.025 μM", "quantitative.readout": 12}

Lookup: Which % Toxicity at 0.025 μM is reported for this compound? CC(C)(C#N)c1ccc(-n2c(=O)n(CC#N)c3cnc4ccc(-c5cnc(N)c(C(F)(F)F)c5)cc4c32)cn1
Found: 0

Lookup: Which % Toxicity at 0.025 μM is reported for this compound? Cn1c(=O)n(-c2ccc(C(F)(F)F)nc2)c2c3cc(-c4ccc(F)nc4F)ccc3ncc21
Found: 14

Lookup: Which % Toxicity at 0.025 μM is reported for this compound? Cn1c(=O)n(-c2ccc(C(C)(C)C#N)nc2)c2c3cc(-c4cnc(N)c(C(F)(F)F)c4)ccc3ncc21
Found: 24
